tested on: MCF7 breast; experiment: NCI-60 one-dose screen, 48 h (100 = growth as untreated, 0 = no growth, -100 = all killed); settings: 10 µM
About 83,000 compounds went through this panel and 20% of them were active in at least one assay; those are over-represented in the sample as a whole.
Can you tell me growth for the items I'm about to list?
Express it in %; write the number only.

**Q:** I am curious: what growth value has been reported for `Cc1cc(=O)oc2cc(OCCCCOc3ccc(/C=C/C(=O)Nc4cccc(Cl)c4)cc3)ccc12` ?
**A:** 50.8

**Q:** I am curious: what growth value has been reported for `Cc1ccc2nc(COc3ccc(C(=O)NNC(=S)NC(=O)c4ccccc4)cc3)[nH]c2c1` ?
**A:** 30.6

**Q:** I am curious: what growth value has been reported for `Brc1ccc(N/N=C/c2c[nH]c3ccccc23)nc1` ?
**A:** 9.88

**Q:** I am curious: what growth value has been reported for `CCCn1c(=O)c2[nH]c(-c3ccc(OCc4nc5ccc(F)cc5[nH]4)cc3)nc2n(CCC)c1=O` ?
**A:** 8.76

**Q:** I am curious: what growth value has been reported for `O=c1oc2ccc(-c3ccc(F)cc3F)cc2c(=O)n1-c1ccc(F)cc1` ?
**A:** -4.67

**Q:** I am curious: what growth value has been reported for `O=C(CSc1nnc(-c2c[nH]c3ccccc23)n1-c1ccccc1)Nc1ccc(C(=O)/C=C/c2cccc([N+](=O)[O-])c2)cc1` ?
**A:** -6.63

**Q:** I am curious: what growth value has been reported for CN1C(=O)N(C)C2SC(N/N=C/c3ccc(F)cc3)=NC21 (centres undefined) ?
**A:** 21.6

**Q:** I am curious: what growth value has been reported for `CN1CCCN(Cc2ccc(C(=O)Nc3cccc(Nc4ccc5cc(O)ccc5n4)c3)cc2C(F)(F)F)CC1` ?
**A:** -22.8

**Q:** I am curious: what growth value has been reported for `COC1=C[C@]23CCC(=O)N2CCc2cc4c(cc2[C@@H]3[C@@H]1OC(=O)CCCC(C)C)OCO4` ?
**A:** 1.77
